- Test system: T1, human PD-1 ECD/Fc fusion protein (human)
- T1 construct: also called huPD-1/Fc; HuPD-1 ECD/Fc
- T1 sequence (chain, as listed by the source limits assumed): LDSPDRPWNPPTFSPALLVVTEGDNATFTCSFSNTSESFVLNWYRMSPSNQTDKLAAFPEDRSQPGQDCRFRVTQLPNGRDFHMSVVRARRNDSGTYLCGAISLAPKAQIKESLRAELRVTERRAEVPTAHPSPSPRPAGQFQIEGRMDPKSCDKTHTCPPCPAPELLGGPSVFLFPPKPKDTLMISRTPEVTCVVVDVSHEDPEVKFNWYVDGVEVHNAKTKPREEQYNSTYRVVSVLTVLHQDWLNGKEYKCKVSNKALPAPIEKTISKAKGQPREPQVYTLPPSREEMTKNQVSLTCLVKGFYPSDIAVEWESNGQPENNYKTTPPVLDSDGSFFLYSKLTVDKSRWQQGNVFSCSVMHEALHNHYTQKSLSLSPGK
- Assay info: BLI Octet, immobilized huPD-1-Fc, Ab analyte
Value type: koff (s⁻¹)
Numeric answer only, unit s⁻¹ assumed.

{"columns": ["Binder", "Reported measurement"],
 "data": [
  ["HumAb719-8 (antibody, human IgG1, kappa, L234A L235A, V domains shown, humanized mAb719) VH: EVQLLESGGGLVQPGGSLRLSCAASGFTFSSHLMSWVRQAPGKGLEWVSAISGGGADTYYPDSVKGRFTISRDNSKNTLYLQMNSLRAEDTAVYYCAKQILAFDSWGQGTTVTVSS VL: DIQMNQSPSSLSASVGDRVTITCHASQNIYVWLNWYQQKPGKAPKLLIYKASNLHTGVPSRFSGSGSGTDFTFTISSLQPEDIATYYCQQGQSYPWTFGGGTKVEIKR", "4.9e-05"]
]}

Turning to the following binder.
Which measured koff value corresponds to HumAb719-11 (antibody, human IgG1, kappa, L234A L235A, V domains shown, humanized mAb719) VH: EVQLLESGGGLVQPGGSLRLSCAASGFSFSSHLMSWVRQAPGKGLEWVAAISGGGADTYYPDSVKGRFTISRDNSKNTLYLQMNSLRAEDTAVYYCTRQILAFDSWGQGTTVTVSS VL: DIQMNQSPSSLSASVGDRVTITCHASQNIYVWLNWYQQKPGKAPKLLIYKASNLHTGVPSRFSGSGSGTDFTFTISSLQPEDIATYYCQQGQSYPWTFGGGTKVEIKR ?
0.000227
